# protocol description: UV absorption (UV-VIS spectra in 2-propanol, 1 mg/100 ml)
# Assay type: physicochemical
# measurement setup: solvent 2-Propanol, c 1 mg/100 ml
quantity measured: UVB max. at λ [nm] (nm)

>>> assay_value("CN(Cc1ccc(/C=C2\\C(=O)C3CCC2(C)C3(C)C)cc1)CC(O)CO[Si](C)(C)C(C)(C)C (stereo not shown)")
297
>>> assay_value("CN(C)c1ccc(C(=O)NCC(=O)CO[Si](C)(C)C(C)(C)C)cc1 [drawing 86]")
312.0
>>> assay_value("CCCCC(CC)COc1ccc(/C=C/C(=O)NCC(O)CO)cc1 (stereo not shown) [drawing 89]")
307.0
>>> assay_value("O=C(c1ccccc1)c1ccc(OCC(O)CO)cc1O (stereo not shown)")
287.9
>>> assay_value("COc1ccc(/C=C/C(=O)N(C)CC(O)CO)cc1 (stereo not shown) [drawing 96]")
292
>>> assay_value("COc1ccc(/C=C/C(=O)NCC(O)CO[Si](C)(C)C(C)(C)C)cc1 (stereo not shown) [drawing 93]")
289
>>> assay_value("COc1ccc(/C=C/C(=O)OCC(=O)COC(=O)/C=C/c2ccc(OC)cc2)cc1 [drawing 73]")
300.67
>>> assay_value("N#CC(C(=O)OCC(=O)COC(=O)C(C#N)=C(c1ccccc1)c1ccccc1)=C(c1ccccc1)c1ccccc1 [drawing 78]")
304.0
>>> assay_value("COc1ccc(/C=C/C(=O)NCC(=O)CO)cc1 [drawing 81]")
294.0
>>> assay_value("CC12CCC(C(=O)/C1=C\\c1ccc(COCC(=O)CO)cc1)C2(C)C (stereo not shown)")
296
>>> assay_value("CN(Cc1ccc(/C=C2\\C(=O)C3CCC2(C)C3(C)C)cc1)CC(O)CO (stereo not shown)")
296
>>> assay_value("CN(C)c1ccc(C(=O)OCC(=O)CO)cc1 [drawing 83]")
311.0
>>> assay_value("COc1ccc(/C=C/C(=O)OCC(=O)CO)cc1 [drawing 74]")
311.33
>>> assay_value("CC12CCC(C(=O)/C1=C\\c1ccc(CNCC(O)CO)cc1)C2(C)C (stereo not shown)")
298.0
>>> assay_value("COC(CO)(COCc1ccc(/C=C2\\C(=O)C3CCC2(C)C3(C)C)cc1)OC (stereo not shown)")
298.0
>>> assay_value("CN(C)c1ccc(C(=O)NCC(O)CO)cc1 (stereo not shown) [drawing 82]")
301.0
>>> assay_value("CCCCC(CC)COc1ccc(/C=C/C(=O)NCC(=O)CO)cc1 (stereo not shown) [drawing 90]")
307.5
>>> assay_value("COc1ccc(/C=C/C(=O)NCC(O)CO)cc1 (stereo not shown) [drawing 94]")
289
>>> assay_value("CN(C)c1ccc(C(=O)NCC(=O)CO)cc1 [drawing 85]")
298.0
>>> assay_value("COc1ccc(/C=C/C(=O)OCC2COC(C)(C)O2)cc1 (stereo not shown)")
306.0
>>> assay_value("N#CC(C(=O)OCC(=O)CO)=C(c1ccccc1)c1ccccc1 [drawing 77]")
303.0
>>> assay_value("CC1(C)OCC(COc2ccc(C(=O)c3ccccc3)c(O)c2)O1 (stereo not shown)")
286.1
>>> assay_value("CN(C)c1ccc(C(=O)NCC(O)CO[Si](C)(C)C(C)(C)C)cc1 (stereo not shown) [drawing 84]")
301.0
>>> assay_value("COc1ccc(/C=C/C(=O)NCC(O)CO)cc1 (stereo not shown) [drawing 75]")
292.00
>>> assay_value("COc1ccc(/C=C/C(=O)OCC(O)CO)cc1 (stereo not shown)")
302.0

Every entry's value here was drawn from patent US7863478B2.
